- assay.target: Cholinesterase (Equus caballus, UniProt P81908)
- Sequence (P81908 whole entry): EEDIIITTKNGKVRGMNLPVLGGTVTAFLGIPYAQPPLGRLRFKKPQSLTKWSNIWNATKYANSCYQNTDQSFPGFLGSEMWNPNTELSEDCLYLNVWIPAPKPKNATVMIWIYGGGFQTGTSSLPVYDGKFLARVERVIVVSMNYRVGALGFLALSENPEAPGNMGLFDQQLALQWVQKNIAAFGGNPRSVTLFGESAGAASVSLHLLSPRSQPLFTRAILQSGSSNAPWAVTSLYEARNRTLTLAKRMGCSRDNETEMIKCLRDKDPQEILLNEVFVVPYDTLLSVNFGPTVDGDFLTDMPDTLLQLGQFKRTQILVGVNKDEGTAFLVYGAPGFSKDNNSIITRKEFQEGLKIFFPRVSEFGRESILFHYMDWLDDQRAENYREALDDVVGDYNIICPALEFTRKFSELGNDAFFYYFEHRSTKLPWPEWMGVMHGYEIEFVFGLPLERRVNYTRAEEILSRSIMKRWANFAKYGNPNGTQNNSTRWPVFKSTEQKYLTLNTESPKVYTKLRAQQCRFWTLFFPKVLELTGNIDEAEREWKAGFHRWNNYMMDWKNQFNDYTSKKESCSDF
- measurement.notes: Inhibition of equine serum BChE using butyrylthiocholine iodide as substrate preincubated for 20mins before the addition of substrate by Ellman's method
- condition.summary: read-out: Ki
Catalogue of compounds with associated Ki

Worked cases, answers included:
- smiles.notation: "CC1(C)CC[C@]2(C(=O)OCc3ccc(Cl)cc3Cl)CC[C@]3(C)C(=CC[C@@H]4[C@@]5(C)C[C@@H](O)[C@H](O)C(C)(C)[C@@H]5CC[C@]43C)[C@@H]2C1"
  reported.endpoint: "Ki"
  recorded.measurement: "> 6 µM"
- smiles.notation: "CC1(C)CC[C@]2(C(=O)OCCO)CC[C@]3(C)C(=CC[C@@H]4[C@@]5(C)C[C@@H](O)[C@H](O)C(C)(C)[C@@H]5CC[C@]43C)[C@@H]2C1"
  reported.endpoint: "Ki"
  recorded.measurement: "> 100 µM"

QUERY: Please give the documented Ki of CCNC(=O)[C@]12CCC(C)(C)C[C@H]1C1=CC[C@@H]3[C@@]4(C)C[C@@H](O)[C@H](O)C(C)(C)[C@@H]4CC[C@@]3(C)[C@]1(C)CC2
RESULT: > 20 µM

QUERY: Please give the documented Ki of CCCCCCOC(=O)[C@]12CCC(C)(C)C[C@H]1C1=CC[C@@H]3[C@@]4(C)C[C@@H](O)[C@H](O)C(C)(C)[C@@H]4CC[C@@]3(C)[C@]1(C)CC2
RESULT: > 6 µM
